Listing of recorded max response by entry.
# Tested on: KB-3-1
# Assay explanation: Cytotoxic Profiling of Annotated Libraries Using Quantitative High-Throughput Screening (AID 1296008); also: % is scaled to controls: 0 for no effect and ±100 for the full control effect; nearly all actives have a fitted effect of over 60% in size
# Details: Five cell lines viability, CellTiter-Glo ATP luminescence, 48-72 h; stronger effect = lower value
Inconclusive results are not listed. Calls of active or inactive are those of the source. Calls follow the shape of the dose curve; as a rule, active = well fitted inhibition curve with a large enough effect; inconclusive = small, poorly fitted or top-dose-only effect; inactive = flat fitted curve, though single readings scatter. Where a SMILES comes first, the peptide text is derived from it. Bridges are numbered along the chain shown (N, C = ends).
Reported endpoint: max response

C/C=C(\C)C(=O)O[C@H]1C=CC(=O)O[C@H]1/C=C/[C@@H](O)[C@H](C)O | -19.4% (inactive)
C=C1/C(=C/C=C2\CCC[C@@]3(C)C2CCC3[C@H](C)/C=C/[C@@H](O)C2CC2)C[C@@H](O)C[C@@H]1O (some centres undefined) | -9.38% (inactive)
OC(CN1CCCCC1)c1cc(-c2ccccc2)on1 (centres undefined) | -12.7% (inactive)
C=C[C@]1(C)C[C@@H](OC(=O)CO)[C@]2(C)[C@H](C)CC[C@]3(CCC(=O)[C@H]32)[C@@H](C)[C@@H]1O | -28.5% (inactive)
NCCCC[C@H](NC(=O)[C@@H]1CCCN1C(=O)[C@@H]1CSSC[C@H](NC(=O)CNC(=O)CNC(=O)CN)C(=O)N[C@@H](Cc2ccc(O)cc2)C(=O)N[C@@H](Cc2ccccc2)C(=O)N[C@@H](CCC(N)=O)C(=O)N[C@@H](CC(N)=O)C(=O)N1)C(=O)NCC(N)=O (H-GGGCYFQNCPKG-NH2; disulfide 4-9) | -6.41% (inactive)
NNc1nnc(Cc2ccncc2)c2ccccc12 | -26.3% (inactive)
Cc1cc(Nc2ccccc2C(=O)O)ccc1Cl | -5.19% (inactive)
COC(=O)/C=C/C=C/C(=O)OC1C=C2COC(=O)C2(O)C2(C)CCCC(C)(C)C12 (centres undefined) | 4.64% (inactive)
CCOC(=O)c1csc(Nc2ccc(Cl)cc2)n1 | -19% (inactive)
O=C([C@@H]1CCCN(c2ccc3[nH]c(C4(n5cc(Cl)cn5)CC4)nc3n2)C1)N1CCCC1 | -11.1% (inactive)
Cc1ccc(-c2c(C(=O)CCl)n(CCCO)c3ncnc(N)c23)cc1 | -3.1% (inactive)
Cc1cccc(C)c1N(CCCc1cccnc1)C(=O)C(C)N (centres undefined) | -6.26% (inactive)
COc1ccc([C@H]2Cc3cccc(O)c3C(=O)O2)cc1OC | 2.52% (inactive)
CC1=C(C(=O)OC2CCCCC2)C(c2ccc([N+](=O)[O-])cc2)C2=C(CC(C)(C)CC2=O)N1 (centres undefined) | -12% (inactive)
CO[C@@H]1[C@@H](O[C@@H]2O[C@H](C)[C@@H](O[C@H]3C[C@@](C)(O)[C@@H](OC(=O)CC(C)C)[C@H](C)O3)[C@H](N(C)C)[C@H]2O)[C@@H](CC=O)C[C@@H](C)[C@@H](O)/C=C/C=C/C[C@@H](C)OC(=O)C[C@H]1O | -0.235% (inactive)
COc1cc(N2CCOCC2)ccc1NC(=O)c1csc(-c2cccnc2)n1 | 1.64% (inactive)
C=C(C(=O)O)[C@@H]1CC=C(CCC(C)=O)[C@@H](C)CC1 | -14.7% (inactive)
CCOc1ccc(CCNC(=O)c2cc3sc(Cl)cc3n2C)cc1OCC | -5.99% (inactive)
C=CC(C)(C)c1[nH]c2ccccc2c1C[C@@H]1NC(=O)[C@H](C)NC1=O | 3.23% (inactive)
CC(=O)[C@@]1(O)CC[C@H]2[C@@H]3C=C(Cl)C4=CC(=O)CC[C@]4(C)[C@H]3CC[C@@]21C | -17.5% (inactive)
COc1cc(C[C@@H]2NCCc3cc(O)c(O)cc32)cc(OC)c1OC | -8.11% (inactive)
O=C(CO)[C@@H](O)[C@H](O)[C@H](O)CO | -8.15% (inactive)
Cc1cnn(-c2ccccc2)c1NC(=O)COCc1ccccc1 | 3.83% (inactive)
C=C1CCC[C@]2(C)CC/C(=C(/CO)C(=O)OC)C[C@@H]12 | -2.83% (inactive)
O=C(OCCO)c1ccccc1O | -5.64% (inactive)
CN(C(=O)CO)c1c(I)c(C(=O)NCC(O)CO)c(I)c(C(=O)NCC(O)CO)c1I (centres undefined) | 5.16% (inactive)
O=C(O)[C@@H](O)[C@H](O)[C@H](O)[C@@H](O)C(=O)O (tested in a mixture with another compound) | -0.35% (inactive)
COc1cc(C(=O)NCC2(N(C)C)CCCC2)cc(OC)c1OCc1ccccc1 | 3.26% (inactive)
CC(=O)OC[C@H]1O[C@@H](O[C@H]2[C@H](O)[C@@H](OC(=O)c3ccccc3C(=O)O)[C@H](O)O[C@@H]2COC(C)=O)[C@H](O)[C@@H](OC(=O)c2ccccc2C(=O)O)[C@@H]1O | -12.2% (inactive)
CCCCCCCCCCCCCCCC(=O)O[C@@H]1CC(C)=C(/C=C/C(C)=C/C=C/C(C)=C/C=C/C=C(C)/C=C/C=C(C)/C=C/C2=C(C)C[C@@H](OC(=O)CCCCCCCCCCCCCCC)CC2(C)C)C(C)(C)C1 | -27.5% (inactive)
CCOC(=O)[C@H](CCc1ccccc1)N[C@@H](C)C(=O)N1CC2(C[C@H]1C(=O)O)SCCS2 | -20.5% (inactive)
CCC(=O)OCC(=O)[C@@]1(OC(=O)CC)[C@@H](C)C[C@H]2[C@@H]3CCC4=CC(=O)C=C[C@]4(C)[C@@]3(Cl)[C@@H](O)C[C@@]21C | -12.3% (inactive)
C=C1C(=O)OC2C1CCC1(C)C(O)CC=C(C)C21 (centres undefined) | 0.514% (inactive)
COc1cccc(NCCC2(c3ccccc3)CC(C)(C)OC(C)(C)C2)c1 | -14.2% (inactive)
